- subject_of_test: Voltage-gated L-type calcium channel (Rattus norvegicus, UniProt P22002+Q02485+P27732)
- procedure_details: Ability to inhibit [3H]nitrendipine binding to the calcium channel receptor(CCR) in rat cerebral cortex homogenate.
- Assay type: tissue-based
attribute_measured: IC50 (µM)

If you can, please state the reported IC50 value of CC(=O)O[C@@H]1c2ccc(CN(C)C)n2-c2cc(C(F)(F)F)ccc2S[C@@H]1c1ccccc1 .
0.3

If you can, please state the reported IC50 value of CCCC(=O)OC1=C(c2ccc(OC)cc2)Sc2ccccc2-n2cccc21 .
0.016

If you can, please state the reported IC50 value of CC(=O)OC1=C(c2ccccc2)Sc2ccc(Cl)cc2-n2c(CN(C)C)ccc21 .
0.96

If you can, please state the reported IC50 value of COc1ccc(C2=C(OC(=O)N(C)C)c3cccn3-c3ccccc3S2)cc1 .
0.42

If you can, please state the reported IC50 value of COc1ccc(C2=C(OC(C)=O)c3cccn3-c3cc(Cl)ccc3S2)cc1 .
0.132

If you can, please state the reported IC50 value of COc1ccc([C@H]2Sc3ccc(Cl)cc3-n3c(CN(C)C)ccc3[C@H]2OC(C)=O)cc1 .
0.0033

If you can, please state the reported IC50 value of COc1ccc([C@H]2Sc3ccccc3-n3c(CN(C)C)ccc3[C@H]2OC(C)=O)cc1 .
0.136

I = CC(=O)OC1=C(c2ccccc2)Sc2ccc(Cl)cc2-n2cccc21
II = CC(=O)O[C@@H]1c2ccc(CN(C)C)n2-c2ccccc2S[C@@H]1c1ccccc1
Looking at I and II , which one comes out lower in IC50 terms? Let me know the label of the one you choose.
I
